system: Enterococcus faecalis; test: In vitro antibacterial activity against Enterococcus faecalis; assay type: functional
REPORTED ENDPOINT: MIC

INSERT INTO assay_data (compound, target, reported_endpoint, endpoint_result) VALUES
  ('C=C(NC(=O)c1csc(-c2nc3c(cc2O)-c2nc(cs2)C(=O)N[C@@H]([C@@H](C)O)C(=O)N/C(=C(\C)OC)c2nc(cs2)C(=O)N[C@@H]2c4nc(cs4)C(=O)N[C@@H](COC(=O)c4c5c6c(cccc6n4OCCC(=O)O)COC(=O)[C@@H](O[C@H]4C[C@](C)(O)[C@H](N(C)C)[C@H](C)O4)[C@H]2OC5)c2nc-3cs2)n1)C(N)=O', 'Enterococcus faecalis', 'MIC', '0.25 µg/mL'),
  ('C=C(NC(=O)c1csc(-c2nc3c(cc2OCCN2CCOCC2)-c2nc(cs2)C(=O)N[C@@H]([C@@H](C)O)C(=O)N/C(=C(\C)OC)c2nc(cs2)C(=O)N[C@@H]2c4nc(cs4)C(=O)N[C@@H](COC(=O)c4c5c6c(cccc6n4OCCN4CCOCC4)COC(=O)[C@@H](O[C@H]4C[C@](C)(O)[C@H](N(C)C)[C@H](C)O4)[C@H]2OC5)c2nc-3cs2)n1)C(N)=O', 'Enterococcus faecalis', 'MIC', '0.25 µg/mL'),
  ('CN[C@H](CC(C)C)C(=O)N[C@H]1C(=O)N[C@@H](CC(N)=O)C(=O)N[C@H]2C(=O)N[C@H]3C(=O)N[C@H](C(=O)N[C@H](C(=O)O)c4cc(O)cc(O)c4-c4cc3ccc4O)[C@H](O)c3ccc(c(Cl)c3)Oc3cc2cc(c3O[C@@H]2O[C@H](CO)[C@@H](O)[C@H](O)[C@H]2O[C@H]2C[C@](C)(N)[C@H](O)[C@H](C)O2)Oc2ccc(cc2Cl)[C@H]1O', 'Enterococcus faecalis', 'MIC', '< 0.5 µg/mL'),
  ('C=C(NC(=O)c1csc(-c2nc3c(cc2OCC(=O)N(C)C)-c2nc(cs2)C(=O)N[C@@H]([C@@H](C)O)C(=O)N/C(=C(\C)OC)c2nc(cs2)C(=O)N[C@@H]2c4nc(cs4)C(=O)N[C@@H](COC(=O)c4c5c6c(cccc6n4OCC(=O)N(C)C)COC(=O)[C@@H](O[C@H]4C[C@](C)(O)[C@H](N(C)C)[C@H](C)O4)[C@H]2OC5)c2nc-3cs2)n1)C(N)=O', 'Enterococcus faecalis', 'MIC', '4 µg/mL'),
  ('C=C(NC(=O)c1csc(-c2nc3c(cc2O)-c2nc(cs2)C(=O)N[C@@H]([C@@H](C)O)C(=O)N/C(=C(\C)OC)c2nc(cs2)C(=O)N[C@@H]2c4nc(cs4)C(=O)N[C@@H](COC(=O)c4c5c6c(cccc6n4OCCOCCOCCOCCOCCOCO)COC(=O)[C@@H](O[C@H]4C[C@](C)(O)[C@H](N(C)C)[C@H](C)O4)[C@H]2OC5)c2nc-3cs2)n1)C(N)=O', 'Enterococcus faecalis', 'MIC', '0.5 µg/mL'),
  ('C=C(NC(=O)c1csc(-c2nc3c(cc2OC)-c2nc(cs2)C(=O)N[C@@H]([C@@H](C)O)C(=O)N/C(=C(\C)OC)c2nc(cs2)C(=O)N[C@@H]2c4nc(cs4)C(=O)N[C@@H](COC(=O)c4c5c6c(cccc6n4OC)COC(=O)[C@@H](O[C@H]4C[C@](C)(O)[C@H](N(C)C)[C@H](C)O4)[C@H]2OC5)c2nc-3cs2)n1)C(N)=O', 'Enterococcus faecalis', 'MIC', '0.015 µg/mL'),
  ('C=C(NC(=O)c1csc(-c2nc3c(cc2O)-c2nc(cs2)C(=O)N[C@@H]([C@@H](C)O)C(=O)N/C(=C(\C)OC)c2nc(cs2)C(=O)N[C@@H]2c4nc(cs4)C(=O)N[C@@H](COC(=O)c4c5c6c(cccc6n4OCCCN)COC(=O)[C@@H](O[C@H]4C[C@](C)(O)[C@H](N(C)C)[C@H](C)O4)[C@H]2OC5)c2nc-3cs2)n1)C(N)=O', 'Enterococcus faecalis', 'MIC', '1 µg/mL'),
  ('C=CCOc1cc2c(nc1-c1nc(C(=O)NC(=C)C(N)=O)cs1)-c1csc(n1)[C@@H]1COC(=O)c3c4c5c(cccc5n3OCC=C)COC(=O)[C@@H](O[C@H]3C[C@](C)(O)[C@H](N(C)C)[C@H](C)O3)[C@@H](OC4)[C@H](NC(=O)c3csc(n3)/C(=C(/C)OC)NC(=O)[C@H]([C@@H](C)O)NC(=O)c3csc-2n3)c2nc(cs2)C(=O)N1', 'Enterococcus faecalis', 'MIC', '0.25 µg/mL'),
  ('C=C(NC(=O)c1csc(-c2nc3c(cc2O)-c2nc(cs2)C(=O)N[C@@H]([C@@H](C)O)C(=O)N/C(=C(\C)OC)c2nc(cs2)C(=O)N[C@@H]2c4nc(cs4)C(=O)N[C@@H](COC(=O)c4c5c6c(cccc6n4OCCCOC4O[C@H](CO)[C@@H](O)[C@H](O)[C@H]4O)COC(=O)[C@@H](O[C@H]4C[C@](C)(O)[C@H](N(C)C)[C@H](C)O4)[C@H]2OC5)c2nc-3cs2)n1)C(N)=O (some centres not stated)', 'Enterococcus faecalis', 'MIC', '> 128 µg/mL'),
  ('C=C(NC(=O)c1csc(-c2nc3c(cc2O)-c2nc(cs2)C(=O)N[C@@H]([C@@H](C)O)C(=O)N/C(=C(\C)OC)c2nc(cs2)C(=O)N[C@@H]2c4nc(cs4)C(=O)N[C@@H](COC(=O)c4c5c6c(cccc6n4OC)COC(=O)[C@@H](O[C@H]4C[C@](C)(O)[C@H](N(C)C)[C@H](C)O4)[C@H]2OC5)c2nc-3cs2)n1)C(N)=O', 'Enterococcus faecalis', 'MIC', '0.125 µg/mL'),
  ('C=C(NC(=O)c1csc(-c2nc3c(cc2OC)-c2nc(cs2)C(=O)N[C@@H]([C@@H](C)O)C(=O)N/C(=C(\C)OC)c2nc(cs2)C(=O)N[C@@H]2c4nc(cs4)C(=O)N[C@@H](COC(=O)c4c5c6c(cccc6n4O)COC(=O)[C@@H](O[C@H]4C[C@](C)(O)[C@H](N(C)C)[C@H](C)O4)[C@H]2OC5)c2nc-3cs2)n1)C(N)=O', 'Enterococcus faecalis', 'MIC', '0.015 µg/mL'),
  ('C=C(NC(=O)c1csc(-c2nc3c(cc2OCCCS(=O)(=O)O)-c2nc(cs2)C(=O)N[C@@H]([C@@H](C)O)C(=O)N/C(=C(\C)OC)c2nc(cs2)C(=O)N[C@@H]2c4nc(cs4)C(=O)N[C@@H](COC(=O)c4c5c6c(cccc6n4OCCCS(=O)(=O)O)COC(=O)[C@@H](O[C@H]4C[C@](C)(O)[C@H](N(C)C)[C@H](C)O4)[C@H]2OC5)c2nc-3cs2)n1)C(N)=O', 'Enterococcus faecalis', 'MIC', '128 µg/mL');

---

tested on: Streptococcus pneumoniae; assay: In vitro antibacterial activity against Streptococcus pneumoniae; assay type: functional
Each entry below lists one item and its recorded MIC value.
REPORTED ENDPOINT: MIC (µg/mL)

INSERT INTO measurements (molecule, reported_endpoint, value_unit, endpoint_result) VALUES
  ('C=C(NC(=O)c1csc(-c2nc3c(cc2O)-c2nc(cs2)C(=O)N[C@@H]([C@@H](C)O)C(=O)N/C(=C(\C)OC)c2nc(cs2)C(=O)N[C@@H]2c4nc(cs4)C(=O)N[C@@H](COC(=O)c4c5c6c(cccc6n4OCCOCCOCCOCCOCCOCO)COC(=O)[C@@H](O[C@H]4C[C@](C)(O)[C@H](N(C)C)[C@H](C)O4)[C@H]2OC5)c2nc-3cs2)n1)C(N)=O', 'MIC', 'µg/mL', 0.007),
  ('C=C(NC(=O)c1csc(-c2nc3c(cc2O)-c2nc(cs2)C(=O)N[C@@H]([C@@H](C)O)C(=O)N/C(=C(\C)OC)c2nc(cs2)C(=O)N[C@@H]2c4nc(cs4)C(=O)N[C@@H](COC(=O)c4c5c6c(cccc6n4OCCCOC4O[C@H](CO)[C@@H](O)[C@H](O)[C@H]4O)COC(=O)[C@@H](O[C@H]4C[C@](C)(O)[C@H](N(C)C)[C@H](C)O4)[C@H]2OC5)c2nc-3cs2)n1)C(N)=O (some centres not stated)', 'MIC', 'µg/mL', 0.06),
  ('C=C(NC(=O)c1csc(-c2nc3c(cc2O)-c2nc(cs2)C(=O)N[C@@H]([C@@H](C)O)C(=O)N/C(=C(\C)OC)c2nc(cs2)C(=O)N[C@@H]2c4nc(cs4)C(=O)N[C@@H](COC(=O)c4c5c6c(cccc6n4OCOP(=O)(OC(C)(C)C)OC(C)(C)C)COC(=O)[C@@H](O[C@H]4C[C@](C)(O)[C@H](N(C)C)[C@H](C)O4)[C@H]2OC5)c2nc-3cs2)n1)C(N)=O', 'MIC', 'µg/mL', 0.015),
  ('C=C(NC(=O)c1csc(-c2nc3c(cc2OC)-c2nc(cs2)C(=O)N[C@@H]([C@@H](C)O)C(=O)N/C(=C(\C)OC)c2nc(cs2)C(=O)N[C@@H]2c4nc(cs4)C(=O)N[C@@H](COC(=O)c4c5c6c(cccc6n4O)COC(=O)[C@@H](O[C@H]4C[C@](C)(O)[C@H](N(C)C)[C@H](C)O4)[C@H]2OC5)c2nc-3cs2)n1)C(N)=O', 'MIC', 'µg/mL', 0.003),
  ('C=CCOc1cc2c(nc1-c1nc(C(=O)NC(=C)C(N)=O)cs1)-c1csc(n1)[C@@H]1COC(=O)c3c4c5c(cccc5n3OCC=C)COC(=O)[C@@H](O[C@H]3C[C@](C)(O)[C@H](N(C)C)[C@H](C)O3)[C@@H](OC4)[C@H](NC(=O)c3csc(n3)/C(=C(/C)OC)NC(=O)[C@H]([C@@H](C)O)NC(=O)c3csc-2n3)c2nc(cs2)C(=O)N1', 'MIC', 'µg/mL', 0.0005),
  ('C=C(NC(=O)c1csc(-c2nc3c(cc2O)-c2nc(cs2)C(=O)N[C@@H]([C@@H](C)O)C(=O)N/C(=C(\C)OC)c2nc(cs2)C(=O)N[C@@H]2c4nc(cs4)C(=O)N[C@@H](COC(=O)c4c5c6c(cccc6n4O)COC(=O)[C@@H](O[C@H]4C[C@](C)(O)[C@H](N(C)C)[C@H](C)O4)[C@H]2OC5)c2nc-3cs2)n1)C(N)=O', 'MIC', 'µg/mL', 0.002),
  ('C=C(NC(=O)c1csc(-c2nc3c(cc2O)-c2nc(cs2)C(=O)N[C@@H]([C@@H](C)O)C(=O)N/C(=C(\C)OC)c2nc(cs2)C(=O)N[C@@H]2c4nc(cs4)C(=O)N[C@@H](COC(=O)c4c5c6c(cccc6n4OCCn4ccnc4)COC(=O)[C@@H](O[C@H]4C[C@](C)(O)[C@H](N(C)C)[C@H](C)O4)[C@H]2OC5)c2nc-3cs2)n1)C(N)=O', 'MIC', 'µg/mL', 0.015),
  ('C=C(NC(=O)c1csc(-c2nc3c(cc2O)-c2nc(cs2)C(=O)N[C@@H]([C@@H](C)O)C(=O)N/C(=C(\C)OC)c2nc(cs2)C(=O)N[C@@H]2c4nc(cs4)C(=O)N[C@@H](COC(=O)c4c5c6c(cccc6n4OCCCS(=O)(=O)O)COC(=O)[C@@H](O[C@H]4C[C@](C)(O)[C@H](N(C)C)[C@H](C)O4)[C@H]2OC5)c2nc-3cs2)n1)C(N)=O', 'MIC', 'µg/mL', 0.007),
  ('C=C(NC(=O)c1csc(-c2nc3c(cc2O)-c2nc(cs2)C(=O)N[C@@H]([C@@H](C)O)C(=O)N/C(=C(\C)OC)c2nc(cs2)C(=O)N[C@@H]2c4nc(cs4)C(=O)N[C@@H](COC(=O)c4c5c6c(cccc6n4OCP(=O)(OCC)OCC)COC(=O)[C@@H](O[C@H]4C[C@](C)(O)[C@H](N(C)C)[C@H](C)O4)[C@H]2OC5)c2nc-3cs2)n1)C(N)=O', 'MIC', 'µg/mL', 0.001),
  ('C=C(NC(=O)c1csc(-c2nc3c(cc2O)-c2nc(cs2)C(=O)N[C@@H]([C@@H](C)O)C(=O)N/C(=C(\C)OC)c2nc(cs2)C(=O)N[C@@H]2c4nc(cs4)C(=O)N[C@@H](COC(=O)c4c5c6c(cccc6n4OCCC(=O)O)COC(=O)[C@@H](O[C@H]4C[C@](C)(O)[C@H](N(C)C)[C@H](C)O4)[C@H]2OC5)c2nc-3cs2)n1)C(N)=O', 'MIC', 'µg/mL', 0.03),
  ('C=C(NC(=O)c1csc(-c2nc3c(cc2O)-c2nc(cs2)C(=O)N[C@@H]([C@@H](C)O)C(=O)N/C(=C(\C)OC)c2nc(cs2)C(=O)N[C@@H]2c4nc(cs4)C(=O)N[C@@H](COC(=O)c4c5c6c(cccc6n4OCCCN4CCN(C)CC4)COC(=O)[C@@H](O[C@H]4C[C@](C)(O)[C@H](N(C)C)[C@H](C)O4)[C@H]2OC5)c2nc-3cs2)n1)C(N)=O', 'MIC', 'µg/mL', 0.03),
  ('C=C(NC(=O)c1csc(-c2nc3c(cc2O)-c2nc(cs2)C(=O)N[C@@H]([C@@H](C)O)C(=O)N/C(=C(\C)OC)c2nc(cs2)C(=O)N[C@@H]2c4nc(cs4)C(=O)N[C@@H](COC(=O)c4c5c6c(cccc6n4OCCC[N+](C)(C)C)COC(=O)[C@@H](O[C@H]4C[C@](C)(O)[C@H](N(C)C)[C@H](C)O4)[C@H]2OC5)c2nc-3cs2)n1)C(N)=O', 'MIC', 'µg/mL', 0.5);

Entry source: ChEMBL document CHEMBL1146687
